Tested on: MDA-MB-231 breast
Test: NCI tumour cell line growth inhibition, 48 h

compound	target_of_assay	TGI
COC(=O)Cc1c([C@H]2[C@H](CC(=O)OC)c3ccccc3N2C(=O)C(F)(F)F)[nH]c2ccccc12	MDA-MB-231 breast	73.4 µM
CC(C)(C)OCC1NC(=O)[C@@H]2Cc3c([nH]c4ccccc34)C(C3CCCCC3)N2C1=O (stereo not given in full)	MDA-MB-231 breast	35.1 µM
CCOC(=O)NN(C(=O)OCC)C(=C(c1ccccc1)N1CCOCC1)N(NC(=O)OCC)C(=O)OCC	MDA-MB-231 breast	> 100 µM
COC(=O)C(=Cc1ccccc1[N+](=O)[O-])C(=O)OC	MDA-MB-231 breast	13.5 µM
COc1cccc2c(Nc3ccc(C(=O)O)cc3)cc(-c3ccccc3)nc12	MDA-MB-231 breast	> 100 µM
C/C(Cc1ccc(Cl)cc1)=C(\c1ccc(OCCN2CCCCCC2)cc1)c1ccc(OC(=O)c2ccccc2)cc1	MDA-MB-231 breast	8.22 µM
O=C(CSCC(=O)N/N=C\c1cc(Cl)cc(Cl)c1O)N/N=C\c1cc(Cl)cc(Cl)c1O	MDA-MB-231 breast	13.5 µM
NC(C(=O)O)c1cc(=O)[nH]o1 (stereo not given)	MDA-MB-231 breast	> 100 µM
CCOC(=O)Nc1nc2cc(OC)c(OC)c(OC)c2s1	MDA-MB-231 breast	> 100 µM
N#Cc1nc(-c2ccccc2C(=O)O)oc1N	MDA-MB-231 breast	> 100 µM
